Where these numbers come from: patent US4588720A

target: benzodiazepine receptors; experiment: Affinity for benzodiazepine receptors ([3H] flunitrazepam radioreceptor binding); settings: inhibition of specific binding of 0.6 nM [^3 H] flunitrazepam, rat forebrain membrane preparations; read-out: Receptor Binding (IC50 nM)
Reported IC50 is given for each of the following molecules.

{"MOLECULE": "COc1nc2nc(C(=O)c3ccccc3)cn2c2c1CCC(C)C2 (centres unmarked) [Example 17]", "ATTRIBUTE_MEASURED": "IC50", "READING": "135 nM"}
{"MOLECULE": "CCc1cc(OC)nc2nc(C(=O)c3ccccc3)cn12 [Example 15]", "ATTRIBUTE_MEASURED": "IC50", "READING": "295 nM"}
{"MOLECULE": "COc1nc2nc(C(=O)c3ccccc3)cn2c2c1CCCCC2 [Example 8]", "ATTRIBUTE_MEASURED": "IC50", "READING": "125 nM"}
{"MOLECULE": "COc1ccn2cc(C(=O)c3ccccc3)nc2n1 [Example 28]", "ATTRIBUTE_MEASURED": "IC50", "READING": "8500 nM"}

Need IC50 of COc1nc2nc(C(=O)c3ccccc3)cn2c(C)c1C(C)C [Example 11] , thanks.
37 nM

Need IC50 of CCc1c(OC)nc2nc(C(=O)c3ccccc3)cn2c1C [Example 16] , thanks.
56 nM

Need IC50 of CCc1c(SC)nc2nc(C(=O)c3ccccc3)cn2c1CC [Example 52] , thanks.
12 nM

Need IC50 of CCCc1cc(SC)nc2nc(C(=O)c3ccccc3)cn12 [Example 22] , thanks.
89 nM

----------
target: benzodiazepine receptors; experiment: Affinity for benzodiazepine receptors ([3H] flunitrazepam radioreceptor binding); details: inhibition of specific binding of 0.6 nM [^3 H] flunitrazepam, rat forebrain membrane preparations; read-out: Receptor Binding (IC50 nM)
Range-based classes on measured IC50: label 0: < 40 nM; label 1: ≥ 40 nM and < 400 nM; label 2: ≥ 400 nM

Examples with answers:
{"COMPOUND": "COc1nc2nc(C(=O)c3ccccc3)cn2c2c1CCC2", "CLASSIFICATION": "label 1"}
{"COMPOUND": "CCc1c(OC)nc2nc(C(=O)c3cccc(OC)c3)cn2c1C", "CLASSIFICATION": "label 2"}

Now let's try a different one.
Hi there! Could you help me figure out the category for "CCCCc1c(OC)nc2nc(C(=O)c3ccccc3)cn2c1C" please?
label 1

----------
target: benzodiazepine receptors; assay: Affinity for benzodiazepine receptors ([3H] flunitrazepam radioreceptor binding); conditions: inhibition of specific binding of 0.6 nM [^3 H] flunitrazepam, rat forebrain membrane preparations; read-out: Receptor Binding (IC50 nM)
ATTRIBUTE_MEASURED: IC50 (nM)
Give a bare numeral; the unit nM is implied.

{"COMPOUND_STRUCTURE_STRING": "CSc1nc2nc(C(=O)c3ccccc3)cn2c2c1CCC2", "SYSTEM_TESTED": "benzodiazepine receptors", "ATTRIBUTE_MEASURED": "IC50", "READING": 35}
{"COMPOUND_STRUCTURE_STRING": "CCCc1c(CC)c(OC)nc2nc(C(=O)c3ccccc3)cn12", "SYSTEM_TESTED": "benzodiazepine receptors", "ATTRIBUTE_MEASURED": "IC50", "READING": 470}

Need IC50 of "CCCc1cc(OC)nc2nc(C(=O)c3ccccc3)cn12" , thanks.
535

Need IC50 of "CCOc1nc2nc(C(=O)c3ccccc3)cn2c(C)c1CC" , thanks.
1900

Need IC50 of "CCc1c(OC)nc2nc(C(=O)c3ccc(OC)cc3)cn2c1C" , thanks.
59

Need IC50 of "CCCCCCc1c(OC)nc2nc(C(=O)c3ccccc3)cn2c1C" , thanks.
180

Need IC50 of "CCc1c(OC)nc2nc(C(=O)c3ccc(SC)cc3)cn2c1C" , thanks.
300

Need IC50 of "CCc1c(OC)nc2nc(C(=O)c3ccc(C)cc3)cn2c1C" , thanks.
68

----------
biological target: benzodiazepine receptors; experiment: Affinity for benzodiazepine receptors ([3H] flunitrazepam radioreceptor binding); details: inhibition of specific binding of 0.6 nM [^3 H] flunitrazepam, rat forebrain membrane preparations; read-out: Receptor Binding (IC50 nM)
Reported IC50 is given for each of the following compounds.
Give a bare numeral; the unit nM is implied.

{"COMPOUND_STRUCTURE_STRING": "CCOc1nc2nc(C(=O)c3ccccc3)cn2c2c1CCCCC2", "SYSTEM_TESTED": "benzodiazepine receptors", "IC50, nM": 4000}
{"COMPOUND_STRUCTURE_STRING": "CCc1c(OC)nc2nc(C(=O)c3ccccc3Cl)cn2c1C", "SYSTEM_TESTED": "benzodiazepine receptors", "IC50, nM": 100}
{"COMPOUND_STRUCTURE_STRING": "CCCCc1c(CC)c(OC)nc2nc(C(=O)c3ccccc3)cn12", "SYSTEM_TESTED": "benzodiazepine receptors", "IC50, nM": 500}
{"COMPOUND_STRUCTURE_STRING": "CCCCc1cn2cc(C(=O)c3ccccc3)nc2nc1OC", "SYSTEM_TESTED": "benzodiazepine receptors", "IC50, nM": 300}
{"COMPOUND_STRUCTURE_STRING": "CCc1cn2cc(C(=O)c3ccccc3)nc2nc1OC", "SYSTEM_TESTED": "benzodiazepine receptors", "IC50, nM": 1500}

Please turn your attention to the following entry.
Need IC50 of "CCc1c(C)c(OC)nc2nc(C(=O)c3ccccc3)cn12" , thanks.
1000

----------
Molecular target: benzodiazepine receptors
Experiment: Affinity for benzodiazepine receptors ([3H] flunitrazepam radioreceptor binding)
Conditions: inhibition of specific binding of 0.6 nM [^3 H] flunitrazepam, rat forebrain membrane preparations; read-out: Receptor Binding (IC50 nM)
Protocol: A. Affinity for benzodiazepine receptors The affinity of the compounds for benzodiazepine receptors was assessed using the radioligand [^3 H] flunitrazepam and modifications of the original radioreceptor binding method of Squares and Braestrup (Nature, Vol. 266 (1977) p. 732). The values given in Table VI are nanomolar concentrations of test compound which inhibited the specific binding of 0.6 nM[^3 H] flunitrazepam to rat forebrain membrain preparations by 50% (IC50 nM).
Reported log10(IC50) is given for each of the following compounds.
Record value = log10 of IC50 given in nM.

Use these answered entries as a reference point.
{"COMPOUND": "COc1cc(C)n2cc(C(=O)c3ccccc3)nc2n1", "log10(IC50)": 2.90}
{"COMPOUND": "CCCc1c(OC)nc2nc(C(=O)c3ccccc3)cn2c1C", "log10(IC50)": 1.93}

benzodiazepine receptors / log10(IC50) / "CCCc1c(SC)nc2nc(C(=O)c3ccccc3)cn2c1CC" : value?
1.67

benzodiazepine receptors / log10(IC50) / "CCCc1cn2cc(C(=O)c3ccccc3)nc2nc1OC" : value?
3.28

benzodiazepine receptors / log10(IC50) / "COc1nc2nc(C(=O)c3ccccc3)cn2c(C)c1CC1CC1" : value?
1.48

benzodiazepine receptors / log10(IC50) / "C=CCc1c(OC)nc2nc(C(=O)c3ccccc3)cn2c1CC" : value?
1.62

benzodiazepine receptors / log10(IC50) / "CCCCc1c(OC)nc2nc(C(=O)c3ccccc3)cn2c1CCC" : value?
2.85

benzodiazepine receptors / log10(IC50) / CSc1nc2nc(C(=O)c3ccccc3)cn2c2c1CCC(C)C2 (stereo not drawn) : value?
1.88

----------
Reported IC50 is given for each of the following compounds.
molecular target: benzodiazepine receptors; assay: Affinity for benzodiazepine receptors ([3H] flunitrazepam radioreceptor binding); conditions: inhibition of specific binding of 0.6 nM [^3 H] flunitrazepam, rat forebrain membrane preparations; read-out: Receptor Binding (IC50 nM)
Give a bare numeral; the unit nM is implied.

Use these answered entries as a reference point.
{"COMPOUND_STRUCTURE_STRING": "CCCCCc1c(OC)nc2nc(C(=O)c3ccccc3)cn2c1C", "IC50 / nM": 107}
{"COMPOUND_STRUCTURE_STRING": "COc1nc2nc(C(=O)c3ccccc3)cn2c2c1CCCC2", "IC50 / nM": 61}
{"COMPOUND_STRUCTURE_STRING": "COc1nc2nc(C(=O)c3ccccc3)cn2c(C)c1CC(C)C", "IC50 / nM": 400}

Need IC50 of "CCCCc1c(OC)nc2nc(C(=O)c3ccccc3)cn2c1CC" , thanks.
34

Need IC50 of "COc1nc2nc(C(=O)c3ccccc3)cn2c(C)c1CC1CCCCC1" , thanks.
250

Need IC50 of "COc1nc2nc(C(=O)c3ccccc3)cn2c(C)c1Cc1ccccc1" , thanks.
45

Need IC50 of "COc1nc2nc(C(=O)c3ccccc3)cn2c(C)c1C" , thanks.
235

Need IC50 of "CCCc1c(C)c(OC)nc2nc(C(=O)c3ccccc3)cn12" , thanks.
740

Need IC50 of "CCCCc1cc(OC)nc2nc(C(=O)c3ccccc3)cn12" , thanks.
340

Need IC50 of "CCCc1c(OC)nc2nc(C(=O)c3ccccc3)cn2c1CCC" , thanks.
1250

Need IC50 of "CCCCc1c(CCC)c(OC)nc2nc(C(=O)c3ccccc3)cn12" , thanks.
1200

Need IC50 of "C=CCc1c(OC)nc2nc(C(=O)c3ccccc3)cn2c1CCC" , thanks.
135
